# Tested On: GALR2 (Homo sapiens, UniProt O43603)
# Sequence (O43603 1-387): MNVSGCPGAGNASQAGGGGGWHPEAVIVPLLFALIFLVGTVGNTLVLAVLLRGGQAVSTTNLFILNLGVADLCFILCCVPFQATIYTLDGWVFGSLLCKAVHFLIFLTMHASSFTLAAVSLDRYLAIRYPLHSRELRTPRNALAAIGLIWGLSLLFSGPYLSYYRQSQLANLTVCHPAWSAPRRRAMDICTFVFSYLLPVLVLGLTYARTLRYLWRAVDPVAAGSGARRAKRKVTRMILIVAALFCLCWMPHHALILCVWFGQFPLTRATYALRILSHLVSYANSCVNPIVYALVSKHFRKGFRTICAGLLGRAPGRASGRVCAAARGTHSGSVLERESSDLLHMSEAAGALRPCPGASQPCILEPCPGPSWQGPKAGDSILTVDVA
# Test Description: Calcium assay, CHO GalR2 cells (FLIPR)
# Experimental Parameters: Table 6; mean +/− standard deviation; highest concentration tested 10 μM
Metric Name: GalR2 activity (calcium assay), warhead length

Answered examples (3):
Gal2-18FC: galanin 2-18, AEAAAKEAAAKA linker, human IgG1 FC; SEQ ID NO: 26 :: 6.7 +/− 0.1
Gal2-30FC: galanin 2-30, AEAAAKEAAAKA linker, human IgG1 FC; SEQ ID NO: 28 :: 6.8 +/− 0.1
Gal2-13FC: galanin 2-13, AEAAAKEAAAKA linker, human IgG1 FC; SEQ ID NO: 7 :: 6.4 +/− 0.1

q: Look up GalR2 activity (calcium assay), warhead length for this substance: Gal2-12FC: galanin 2-12, AEAAAKEAAAKA linker, human IgG1 FC; SEQ ID NO: 25
a: 6.6 +/− 0.0

q: Look up GalR2 activity (calcium assay), warhead length for this substance: Gal2-24FC: galanin 2-24, AEAAAKEAAAKA linker, human IgG1 FC; SEQ ID NO: 27
a: 6.9 +/− 0.3
